So I've got a bunch of binders here, and I need their % inhibition of BACE1 activity, short FRET substrate values.
# test target: human BACE1 ECD; note: test concentration or dose not given here
# Sequence (single chain, as listed by the source limits assumed): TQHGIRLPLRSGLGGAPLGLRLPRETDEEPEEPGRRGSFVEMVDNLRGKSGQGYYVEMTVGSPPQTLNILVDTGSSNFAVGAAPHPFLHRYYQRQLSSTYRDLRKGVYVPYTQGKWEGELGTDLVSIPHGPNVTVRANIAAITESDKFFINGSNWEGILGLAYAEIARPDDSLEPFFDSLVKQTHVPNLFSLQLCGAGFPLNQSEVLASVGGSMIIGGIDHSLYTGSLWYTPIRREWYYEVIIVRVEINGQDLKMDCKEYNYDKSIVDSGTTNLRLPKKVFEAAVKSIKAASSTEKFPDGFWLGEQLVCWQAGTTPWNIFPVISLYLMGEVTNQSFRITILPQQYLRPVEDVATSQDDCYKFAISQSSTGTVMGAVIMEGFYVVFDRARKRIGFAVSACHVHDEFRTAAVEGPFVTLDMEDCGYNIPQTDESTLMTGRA
# assay info: cell-based or functional assay
One number for each entry, in %.

Known results for binders:
binder: 5897 (antibody, V domains shown, anti-BACE1 IgG) VH: QLQLQESGPGLVKPSETLSLTCTVSGGSISWSSYYWSWIRQPPGKGLEWIGSIYKSGRTYYNPSLKSRVTISVDTSKNQFSLKLSSVTAADTAVYYCARVGHGISYFDLWGRGTLVTVSS VL: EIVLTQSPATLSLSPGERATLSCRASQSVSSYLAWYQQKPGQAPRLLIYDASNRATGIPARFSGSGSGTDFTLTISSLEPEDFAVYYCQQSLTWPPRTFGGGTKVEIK
assay result: 1
//
binder: 5260 (antibody, V domains shown, anti-BACE1 IgG) VH: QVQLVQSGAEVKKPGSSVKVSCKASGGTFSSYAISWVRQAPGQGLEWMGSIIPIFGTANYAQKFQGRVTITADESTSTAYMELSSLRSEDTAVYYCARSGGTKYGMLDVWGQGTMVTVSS VL: EIVMTQSPATLSVSPGERATLSCRASQSVGSNLAWYQQKPGQAPRLLIYGASTRATGIPARFSGSGSGTEFTLTISSLQSEDFAVYYCQQAVVWPPRTFGGGTKVEIK
assay result: -54

Recorded % inhibition of BACE1 activity, short FRET substrate for 5891 (antibody, V domains shown, anti-BACE1 IgG) VH: QVQLVQSGAEVKKPGSSVKVSCKASGGTFSSYAISWVRQAPGQGLEWMGNIIPIFGPANYAQKFQGRVTITADESTSTAYMELSSLRSEDTAVYYCARSGGTKYGMLDVWGQGTMVTVSS VL: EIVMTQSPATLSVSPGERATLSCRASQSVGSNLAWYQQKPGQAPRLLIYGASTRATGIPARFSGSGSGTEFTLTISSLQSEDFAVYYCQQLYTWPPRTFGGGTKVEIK , please?
71

Just for reference, patent US20180057604A1 is where these values come from.
